The origin of these recorded values is PubChem BioAssay.

ASSAY TARGET: Single-stranded DNA-binding protein (Escherichia coli (strain K12)) (UniProt P0AGE0)
TEST PROTOCOL: E. coli SSB displacement from DNA, counter-screen for HCV NS3 helicase inhibitor project, biochemical, fluorescence polarization, NIH Clinical Collection (AID 743271)
DETAILS: stronger effect = higher value, concentration not given here
REPORTED ENDPOINT: inhibition (%)
Answers are plain numbers, in %.

These recorded examples may help you get a feel for the data.
INSERT INTO assay_data (compound, reported_endpoint, result_units, numeric_result) VALUES
  ('Cc1cc(NS(=O)(=O)c2ccc(N)cc2)no1', 'inhibition', '%', -0.48),
  ('CC#C[C@]1(O)CC[C@H]2[C@@H]3CCC4=CC(=O)CCC4=C3[C@@H](c3ccc(N(C)C)cc3)C[C@@]21C', 'inhibition', '%', -1.18),
  ('CC(C)[N+]1(C)C2CCC1CC(OC(=O)C(CO)c1ccccc1)C2 (stereo not given)', 'inhibition', '%', -3.53),
  ('CN(C)CCC(c1ccc(Cl)cc1)c1ccccn1 (stereo not given)', 'inhibition', '%', -3.95),
  ('O=C(CCCN1CCC(O)(c2ccc(Cl)cc2)CC1)c1ccc(F)cc1', 'inhibition', '%', 1.18);

I need inhibition for every entry listed below, if you could help.
1. CC(C)n1c(/C=C/[C@@H](O)C[C@@H](O)CC(=O)O)c(-c2ccc(F)cc2)c2ccccc21
2. CC(C)NCC(O)COc1ccc(CC(N)=O)cc1 (stereo not given)
3. COCCCOc1ccnc(CS(=O)c2nc3ccccc3[nH]2)c1C (stereo not given)
4. CON=C(C(=O)NC1C(=O)N2C(C(=O)O)=C(COC(C)=O)CSC12)c1csc(N)n1 (stereo not given)
5. CCn1cc(C(=O)O)c(=O)c2ccc(C)nc21
6. C[C@H]1COc2c(N3CCN(C)CC3)c(F)cc3c(=O)c(C(=O)O)cn1c23
7. CNCCCN1c2ccccc2CCc2ccccc21

1: 2.57; 2: 0.29; 3: 0.39; 4: 36.1; 5: -2.76; 6: -3.95; 7: -2

I need inhibition for every entry listed below, if you could help.
1. CCc1ccc(CCOc2ccc(CC3SC(=O)NC3=O)cc2)nc1 (stereo not given)
2. Nc1ccn([C@@H]2O[C@H](CO)[C@@H](O)C2O)c(=O)n1 (stereo not given in full)
3. COc1ccc(-c2oc3c(CC=C(C)C)c(O[C@@H]4O[C@H](CO)[C@@H](O)[C@H](O)[C@H]4O)cc(O)c3c(=O)c2O[C@@H]2O[C@@H](C)[C@H](O)[C@@H](O)[C@H]2O)cc1
4. C[C@H](CCC(=O)O)[C@H]1CC[C@H]2[C@@H]3[C@@H](O)C[C@@H]4C[C@H](O)CC[C@]4(C)[C@H]3CC[C@]12C
5. CC(C)(C(=O)O)c1ccc(C(O)CCCN2CCC(C(O)(c3ccccc3)c3ccccc3)CC2)cc1 (stereo not given)
6. CN1CCN(C2=Nc3cc(Cl)ccc3Nc3ccccc32)CC1
7. CC1=C(/C=C/C(C)=C/C=C/C(C)=C\C(=O)O)C(C)(C)CCC1

3.75
-0.87
-2.41
1.81
1.05
-3.53
-1.24

Given the compound CCCCC(=O)O[C@H]1CC[C@H]2[C@@H]3CCc4cc(O)ccc4[C@H]3CC[C@]12C , write its reported inhibition.
4.1

----------
TEST PROTOCOL: inhibition of endothelial tube formation, primary screen, imaging, VEGF stimulated, CD31 staining, tube area, NPC library (AID 1117340)
DETAILS: VEGF-stimulated ADSC/ECFC co-culture, at 10 µM, stronger effect = higher value
REPORTED ENDPOINT: tube area decrease (%)
Answers are plain numbers, in %.

These recorded examples may help you get a feel for the data.
INSERT INTO measurements (compound, reported_endpoint, result_units, numeric_result) VALUES
  ('COc1ccc(-c2nc3ccc(C4=NNC(=O)CC4C)cc3[nH]2)cc1 (stereo unspecified)', 'tube area decrease', '%', 80.8),
  ('CC(=O)[C@@]1(O)CC[C@H]2[C@@H]3CCC4=CC(=O)CC[C@]4(C)[C@H]3CC[C@@]21C', 'tube area decrease', '%', -5.3),
  ('CCCCCCCCCCCCCCCC[N+](C)(C)CCN(Cc1ccc(OC)cc1)c1ncccn1', 'tube area decrease', '%', 110),
  ('CCCCN1C[C@H](O)[C@@H](O)[C@H](O)[C@H]1CO', 'tube area decrease', '%', 8.1),
  ('CC[C@@H](CO)NCCN[C@@H](CC)CO', 'tube area decrease', '%', 14.4);

Kindly consider the entry below.
Given the compound CCN(CC)C(=O)Nc1ccc(OCC(O)CNC(C)(C)C)c(C(C)=O)c1 (stereo unspecified) , write its reported tube area decrease.
-7.8

----------
TEST PROTOCOL: viability rescue of complex I mutant cybrids, primary screen, cell-based, galactose medium, ATP luminescence (AID 1645843);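 also: positive z means more ATP and so rescue of galactose-driven cybrid death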
DETAILS: complex I mutant cybrid cells, 72 h, stronger effect = higher value
REPORTED ENDPOINT: z-score
Answers are plain numbers.

INSERT INTO measurements (molecule, numeric_result) VALUES
  ('COc1cc2c(c(OC)c1OC)-c1ccc(OC)c(=O)cc1[C@@H](NC(C)=O)CC2', -0.69),
  ('COc1c2occc2cc2ccc(=O)oc12', 0.975),
  ('CCN1CCc2nc(N)oc2CC1', 0.29),
  ('COC(=O)C1=C(C)NC(C)=C(C(=O)OCCN2CCN(C(c3ccccc3)c3ccccc3)CC2)C1c1cccc([N+](=O)[O-])c1 (configuration not stated)', -1.36),
  ('CC(C)Nc1cccnc1N1CCN(C(=O)c2cc3cc(NS(C)(=O)=O)ccc3[nH]2)CC1', 0.98),
  ('CCCC(=O)Nc1ccc(OCC(O)CNC(C)C)c(C(C)=O)c1 (configuration not stated)', 1.51),
  ('C#CCN(C)CCCOc1ccc(Cl)cc1Cl', -0.39),
  ('C(=C\c1ccccc1)/CN1CCN(C(c2ccccc2)c2ccccc2)CC1', -0.01);

I need z-score for every entry listed below, if you could help.
1. CS(=O)(=O)c1ccc([C@@H](O)[C@@H](CF)NC(=O)C(Cl)Cl)cc1
2. CN[C@H](CC(=O)O)C(=O)O
3. NC1(C(=O)O)CC1
4. C=CCn1c(=O)n([C@@H]2O[C@H](CO)[C@@H](O)[C@H]2O)c2nc(N)[nH]c(=O)c21
5. COc1ccc2[nH]c(S(=O)Cc3ncc(C)c(OC)c3C)nc2n1 (configuration not stated)
6. O=c1cc(-c2ccccc2)oc2cc(O)c(O)c(O)c12

[-1.65, 0.495, 0.575, 0.185, 0.825, -0.805]

I need z-score for every entry listed below, if you could help.
1. COC(=O)[C@H]1[C@H]2C[C@H]3c4[nH]c5ccccc5c4CCN3C[C@H]2CC[C@@H]1O
2. C=CCN1C[C@H](C(=O)N(CCCN(C)C)C(=O)NCC)C[C@@H]2c3cccc4[nH]cc(c34)C[C@H]21

1. 0.115
2. -0.085

I need z-score for every entry listed below, if you could help.
1. N[C@@H](Cc1c[nH]c2ccccc12)C(=O)O
2. C[C@H](CCC(=O)O)[C@H]1CC[C@H]2[C@@H]3[C@@H](O)C[C@@H]4C[C@H](O)CC[C@]4(C)[C@H]3CC[C@]12C
3. COc1ccc(-c2cc(=S)ss2)cc1
4. CCN[C@H]1C[C@H](C)S(=O)(=O)c2sc(S(N)(=O)=O)cc21
5. CCCCN1CCCCC1C(=O)Nc1c(C)cccc1C (configuration not stated)
6. C#C[C@]1(OC(C)=O)CC[C@H]2[C@@H]3CCC4=CC(=O)CC[C@@H]4[C@H]3CC[C@@]21C

0.315
-0.425
0.675
0.255
0.545
-1.36

----------
TEST PROTOCOL: stimulators of nuclear beta-catenin in C2C12, primary screen, imaging, WNT3A-conditioned medium, mouse C2C12, NPC library (AID 1117326); also: reference of the scale not given here
DETAILS: at 10 µM
Active and inactive are the calls of the source. Rule as the data show it: active = nuclear beta-catenin stimulation mostly above about 4.2% (no sharp cut-off); inactive = mostly below about 10%.
Allowed answers: True for active, False for inactive

INSERT INTO assay_data (molecule, cat) VALUES
  ('O=C(O)COC(=O)Cc1ccccc1Nc1c(Cl)cccc1Cl', 'False');

Query: recorded result category for CC(C(=O)O)c1ccc2c(c1)CC(=O)c1ccccc1S2 (centres undefined) in this test
False

Query: recorded result category for CC(=O)[C@@]1(O)CC[C@H]2[C@@H]3CCC4=CC(=O)CC[C@]4(C)[C@H]3CC[C@@]21C in this test
False

Query: recorded result category for N#Cc1c(N(CC(=O)O)CC(=O)O)sc(C(=O)O)c1CC(=O)O in this test
False

Query: recorded result category for CCCCCCCCCCCCCCC[C@H](O)[C@@H](N)CO in this test
True
